biological target: Orexin receptor type 2 (Rattus norvegicus, UniProt P56719)
Sequence (P56719 whole entry): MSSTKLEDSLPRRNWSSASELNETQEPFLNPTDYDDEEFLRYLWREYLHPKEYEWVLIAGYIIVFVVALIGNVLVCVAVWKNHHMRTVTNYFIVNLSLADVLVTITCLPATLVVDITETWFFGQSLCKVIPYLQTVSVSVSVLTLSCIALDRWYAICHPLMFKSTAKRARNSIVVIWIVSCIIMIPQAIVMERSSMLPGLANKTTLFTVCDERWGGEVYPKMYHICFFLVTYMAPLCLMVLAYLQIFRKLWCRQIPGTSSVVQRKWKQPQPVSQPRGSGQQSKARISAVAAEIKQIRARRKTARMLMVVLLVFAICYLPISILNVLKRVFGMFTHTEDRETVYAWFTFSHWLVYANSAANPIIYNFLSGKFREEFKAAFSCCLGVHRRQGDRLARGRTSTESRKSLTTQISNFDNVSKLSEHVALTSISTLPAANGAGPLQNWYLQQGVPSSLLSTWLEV
pKi: −log10 of the molar value.
recorded_metric: pKi

Form: compound = `O=C(c1cccn2cncc12)N1CCC(F)(F)[C@@H](Oc2ccc3ccccc3n2)C1` ; pKi = < 5.00

* * *

assay: Oral bioavailability in rhesus monkey at 30 mg/kg; type: ADME, organism-based, Macaca mulatta; conditions: in vivo
recorded_metric: bioavailability
Please provide the amount together with its unit, number first.

Form: compound = `O=C(c1cccn2cncc12)N1CCC(F)(F)[C@@H](Oc2ccc3ccccc3n2)C1` ; bioavailability = 1%

* * *

experiment: Cmax in rat at 20 mg/kg, po; assay type: ADME, organism-based; set-up: dose 20 mg/kg, route oral; conditions: in vivo
recorded_metric: Cmax
Please provide the amount together with its unit, number first.

Form: compound = `O=C(c1cccn2cncc12)N1CCC(F)(F)[C@@H](Oc2ccc3ccccc3n2)C1` ; Cmax = 5 µM

* * *

assay: Antagonist activity at human OX1 receptor Ile408-Val mutant expressed on CHO cell membrane assessed as inhibition of Ala-6,12 orexin-A-induced calcium increase preincubated for 5 mins prior to Ala-6,12 orexin-A addition measured at 1 sec intervals for 1 min by Fluo-4AM dye-based FLIPR assay
Listed here are compounds together with their documented pIC50.
Interpret pIC50 as the negative base-10 log of the concentration measured in mol/L.

O=C(c1ccccc1-n1nccn1)N1CCC(F)(F)[C@@H](Oc2ccc3ccccc3n2)C1 : 7.05
O=C(c1cccn2cncc12)N1CCC(F)(F)[C@@H](Oc2ccc3ccccc3n2)C1 : 7.52

Form: compound = `O=C(c1nccc2[nH]cnc12)N1CCC(F)(F)[C@@H](Oc2ccc3ccccc3n2)C1` ; pIC50 = 7.24

* * *

Molecular target: Orexin receptor type 2 (Homo sapiens)
Sequence (O43614 whole entry): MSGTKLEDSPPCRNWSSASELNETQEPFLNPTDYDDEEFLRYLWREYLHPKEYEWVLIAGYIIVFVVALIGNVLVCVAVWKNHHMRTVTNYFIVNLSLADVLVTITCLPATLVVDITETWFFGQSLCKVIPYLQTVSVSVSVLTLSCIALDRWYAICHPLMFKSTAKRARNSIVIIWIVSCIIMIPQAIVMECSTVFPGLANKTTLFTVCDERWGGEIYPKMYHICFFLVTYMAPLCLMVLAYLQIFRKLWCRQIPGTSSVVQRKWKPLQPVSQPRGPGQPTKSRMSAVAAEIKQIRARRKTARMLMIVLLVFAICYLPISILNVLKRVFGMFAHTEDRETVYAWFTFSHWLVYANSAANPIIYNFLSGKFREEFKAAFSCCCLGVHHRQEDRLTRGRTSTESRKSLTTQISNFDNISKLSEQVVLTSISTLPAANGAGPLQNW
Listed here are molecules together with their documented log10 of Ki.
All values: log10 Ki [nM].

Here is how some molecules turned out for log10 of Ki.
COc1ccc(F)c(C(=O)N2CCC(F)(F)C(Oc3ccc4ccccc4n3)C2)c1 (racemic) : 3.21
O=C(c1ccccc1-c1ncccn1)N1CCC(F)(F)[C@@H](Oc2ccc3ccccc3n2)C1 : 2.45
O=C(c1cccc2[nH]ccc12)N1CCC(F)(F)[C@@H](Oc2ccc3ccccc3n2)C1 : 2.08
O=C(c1cccc(-n2ccnn2)c1)N1CCC(F)(F)[C@@H](Oc2ccc3ccccc3n2)C1 : 3.63
O=C(c1ccccc1-n1nccn1)N1CCC(F)(F)C(Oc2ccc(C(F)(F)F)cn2)C1 (centres undefined) : 2.67
O=C(c1ccccc1-n1nccn1)N1CCC(F)(F)C(Oc2ccc3ccccc3n2)C1 (racemic) : 3.06
O=C(c1cncc2[nH]ccc12)N1CCC(F)(F)[C@@H](Oc2ccc3ccccc3n2)C1 : 2.03
O=C(c1ccccc1-n1cccn1)N1CCC(F)(F)[C@@H](Oc2ccc3ccccc3n2)C1 : 2.43

Form: molecule = O=C(c1ccccc1-n1nccn1)N1CCC(F)(F)C(Oc2nc3ccccc3o2)C1 (centres undefined) ; log10 of Ki = 2.67

Form: molecule = `O=C(c1cccc(-n2cccn2)c1)N1CCC(F)(F)[C@@H](Oc2ccc3ccccc3n2)C1` ; log10 of Ki = 2.80

Form: molecule = `O=C(c1ccccc1-n1nccn1)N1CCC[C@@H](Oc2ccc3ccccc3n2)C1` ; log10 of Ki = 1.43

Form: molecule = `O=C(c1cccn2cncc12)N1CCC(F)(F)[C@@H](Oc2ccc3ccccc3n2)C1` ; log10 of Ki = 3.00

Form: molecule = `O=C(c1ccnc2[nH]ccc12)N1CCC(F)(F)[C@@H](Oc2ccc3ccccc3n2)C1` ; log10 of Ki = 3.19

* * *

assay: Oral bioavailability in rat at 10 mg/kg; type: ADME, organism-based; conditions: in vivo
recorded_metric: bioavailability (%)
Form entry: value (%) — number only.

Here is how some compounds turned out for bioavailability.
O=C(c1nccc2[nH]cnc12)N1CCC(F)(F)[C@@H](Oc2ccc3ccccc3n2)C1 : 22
O=C(c1cccc2[nH]cnc12)N1CCC(F)(F)[C@@H](Oc2ccc3ccccc3n2)C1 : 10

Let us move to another entry and its bioavailability.
Form: compound = `O=C(c1cccn2cncc12)N1CCC(F)(F)[C@@H](Oc2ccc3ccccc3n2)C1` ; bioavailability = 13

* * *

biological target: Orexin/Hypocretin receptor type 1 (Rattus norvegicus, UniProt P56718); assay: Antagonist activity at rat OX1 receptor assessed as inhibition of Ala-6,12 orexin-A-induced calcium increase preincubated for 5 mins prior to Ala-6,12 orexin-A addition measured at 1 sec intervals for 1 min by Fluo-4AM dye-based FLIPR assay
Sequence (P56718 whole entry): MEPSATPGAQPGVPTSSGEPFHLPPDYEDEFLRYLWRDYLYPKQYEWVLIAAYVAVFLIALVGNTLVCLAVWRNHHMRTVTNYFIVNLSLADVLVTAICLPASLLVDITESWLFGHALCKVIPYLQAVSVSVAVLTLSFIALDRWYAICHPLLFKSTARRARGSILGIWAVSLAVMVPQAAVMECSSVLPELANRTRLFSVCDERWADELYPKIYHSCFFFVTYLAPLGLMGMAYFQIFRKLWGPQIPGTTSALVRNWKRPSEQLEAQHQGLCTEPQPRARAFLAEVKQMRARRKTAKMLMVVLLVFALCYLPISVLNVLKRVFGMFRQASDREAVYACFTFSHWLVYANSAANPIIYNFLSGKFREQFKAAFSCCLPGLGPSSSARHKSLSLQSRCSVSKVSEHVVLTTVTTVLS
recorded_metric: Ki

Form: compound = `O=C(c1cccn2cncc12)N1CCC(F)(F)[C@@H](Oc2ccc3ccccc3n2)C1` ; Ki = 6.8 to 10 µM

* * *

Listed here are molecules together with their documented solubility.
test: Aqueous solubility of the compound at pH 7; assay type: physicochemical; conditions: aqueous medium
Form entry: value (µM) — number only.

Here is how some molecules turned out for solubility.
O=C(c1cccc2[nH]ccc12)N1CCC(F)(F)[C@@H](Oc2ccc3ccccc3n2)C1 : 13
O=C(c1cccn2cncc12)N1CCC(F)(F)[C@@H](Oc2ccc3ccccc3n2)C1 : 171

Form: molecule = `O=C(c1nccc2[nH]cnc12)N1CCC(F)(F)[C@@H](Oc2ccc3ccccc3n2)C1` ; solubility = 182

* * *

assay: Aqueous solubility of the compound at pH 2; assay type: physicochemical; details: aqueous medium
recorded_metric: solubility

Here is how some compounds turned out for solubility.
O=C(c1nccc2[nH]ccc12)N1CCC(F)(F)[C@@H](Oc2ccc3ccccc3n2)C1 : > 150 µM
O=C(c1ccnc2[nH]ccc12)N1CCC(F)(F)[C@@H](Oc2ccc3ccccc3n2)C1 : > 150 µM

Form: compound = `O=C(c1ccccc1-n1nccn1)N1CCC(F)(F)[C@@H](Oc2ccc3ccccc3n2)C1` ; solubility = < 26 µM

* * *

tested on: CHO; experiment: Selectivity index, ratio of Ki for human OX2 receptor expressed on CHO cell membrane to Ki for Ile408-Val variant human OX1 receptor expressed on CHO cell membrane; type: cell-based
recorded_metric: Ratio Ki

Here is how some molecules turned out for Ratio Ki.
COc1ccccc1C(=O)N1CCC(F)(F)C(Oc2ccc3ccccc3n2)C1 (racemic) : > 110
O=C(c1cccn2cncc12)N1CCC(F)(F)C(Oc2ccc3ccccc3n2)C1 (racemic) : > 439
O=C(c1ccccc1F)N1CCC(F)(F)C(Oc2ccc3ccccc3n2)C1 (racemic) : > 77
COc1cccc(C(=O)N2CCC(F)(F)C(Oc3ccc4ccccc4n3)C2)c1 (racemic) : > 481
O=C(c1cccc2cncn12)N1CCC(F)(F)C(Oc2ccc3ccccc3n2)C1 (racemic) : > 40

Form: molecule = O=C(c1cccc2nccn12)N1CCC(F)(F)C(Oc2ccc3ccccc3n2)C1 (racemic) ; Ratio Ki = > 6

Form: molecule = `O=C(c1nccc2[nH]ccc12)N1CCC(F)(F)[C@@H](Oc2ccc3ccccc3n2)C1` ; Ratio Ki = 325

Form: molecule = O=C(c1ccccc1)N1CCC(F)(F)C(Oc2ccc3ccccc3n2)C1 (racemic) ; Ratio Ki = > 230

Form: molecule = `O=C(c1cccc2[nH]cnc12)N1CCC(F)(F)[C@@H](Oc2ccc3ccccc3n2)C1` ; Ratio Ki = 371

Form: molecule = `O=C(c1ccccc1-n1nccn1)N1CCC(F)(F)[C@@H](Oc2ccc3ccccc3n2)C1` ; Ratio Ki = 400 to 401

Form: molecule = `O=C(c1cccc2[nH]ccc12)N1CCC(F)(F)[C@@H](Oc2ccc3ccccc3n2)C1` ; Ratio Ki = 240

Form: molecule = `O=C(c1cccc(-n2cccn2)c1)N1CCC(F)(F)[C@@H](Oc2ccc3ccccc3n2)C1` ; Ratio Ki = 570

Form: molecule = `O=C(c1cccc2[nH]ncc12)N1CCC(F)(F)[C@@H](Oc2ccc3ccccc3n2)C1` ; Ratio Ki = > 744

Form: molecule = `O=C(c1ccnc2[nH]ccc12)N1CCC(F)(F)[C@@H](Oc2ccc3ccccc3n2)C1` ; Ratio Ki = 626

* * *

tested on: CHO; assay: Selectivity index, ratio of Ki for human OX2 receptor expressed on CHO cell membrane to Ki for Ile408-Val variant human OX1 receptor expressed on CHO cell membrane; type: cell-based
Quick rule for you: Ratio Ki under 400 gets YES, anything else gets NO.

Solved cases (5 shown):
O=C(c1ccccc1-n1nccn1)N1CCC(F)(F)C(Oc2nc3ccccc3o2)C1 (configuration not stated) : YES
COc1ccc(F)c(C(=O)N2CCC(F)(F)C(Oc3ccc4ccccc4n3)C2)c1 (racemic) : NO
O=C(c1ccccc1-n1nccn1)N1CCC(F)(F)C(Oc2ccnc3ccccc23)C1 (configuration not stated) : YES
O=C(c1cccc(-n2nccn2)c1)N1CCC(F)(F)[C@@H](Oc2ccc3ccccc3n2)C1 : YES
O=C(c1cncc2[nH]ccc12)N1CCC(F)(F)[C@@H](Oc2ccc3ccccc3n2)C1 : YES

Attention now turns to another entry.
Does this molecule meet the criterion Ratio Ki < 400? O=C(c1ccccc1-n1nccn1)N1CCC(F)(F)C(Oc2ccc(C(F)(F)F)cn2)C1 (configuration not stated) YES
